The origin of these recorded values is the NIST ThermoML archive (doi:10.1021/je400849a).

particulars: 328.15 K; 101.33 kPa; Liquid; Vibrating tube method
endpoint label: mass density (kg/m3)
Numbers only, in kg/m3.

List mass density for every entry below, keeping the order given.
1. CCCCCCCCCCn1cc[n+](CCC#N)c1.O=C([O-])c1cccc(S(=O)(=O)O)c1 [3-(2-cyanoethyl)-1-decylimidazolium 3-sulfobenzoate]
2. CCCCn1cc[n+](CCC#N)c1.O=S(=O)([O-])c1ccccc1 [1-butyl-3-(2-cyanoethyl)-1H-imidazolium benzenesulfonate]
3. CCCCCCCCCCCCOS(=O)(=O)[O-].CCCCCCCCCCn1cc[n+](CCC#N)c1 [3-(2-cyanoethyl)-1-decylimidazolium dodecylsulfate]
4. CCCCCCCCCCCCOS(=O)(=O)[O-].CCCCn1cc[n+](CCC#N)c1 [1-butyl-3-(2-cyanoethyl)-1H-imidazol-3-ium dodecyl sulfate]

Response given:
1. 1112.7
2. 1217.1
3. 1034.3
4. 1101.9
